test system: P-gp; test: Permeability across MDCK cells expressing p-gp; format: ADME, cell-based, Canis lupus familiaris; settings: dog, MDCK-MDR1; read-out: permeability
value.type: Papp (×10⁻⁶ cm/s)
Give bare numbers, in ×10⁻⁶ cm/s.

Which Papp value belongs to Cc1cc(C(=O)NN2CCOCC2)nn1Cc1cc(Cl)cc2cc(C(C)C)oc12 ?
67.1

====

Would you kindly list pIC50 for each of these compounds?
Target: Prostaglandin E2 receptor EP1 subtype (Homo sapiens)
Sequence (P34995 whole entry): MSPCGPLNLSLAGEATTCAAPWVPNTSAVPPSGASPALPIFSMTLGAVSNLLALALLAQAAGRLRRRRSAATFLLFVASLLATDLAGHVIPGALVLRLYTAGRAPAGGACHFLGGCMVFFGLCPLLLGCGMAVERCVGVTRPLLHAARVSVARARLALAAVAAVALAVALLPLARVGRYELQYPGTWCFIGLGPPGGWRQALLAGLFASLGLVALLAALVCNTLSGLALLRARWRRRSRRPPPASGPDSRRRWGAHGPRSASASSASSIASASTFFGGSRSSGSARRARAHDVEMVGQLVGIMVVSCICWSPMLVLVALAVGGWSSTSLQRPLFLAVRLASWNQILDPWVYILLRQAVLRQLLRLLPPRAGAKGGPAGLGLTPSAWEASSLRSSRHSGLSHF
Experiment: Displacement of [3H]GW875240X from human prostanoid EP1 receptor expressed in CHO-K1 cells after 45 mins by topcount liquid scintillation counting
Format: cell-based
Give bare numbers, as −log10 of the molar value.

Study these solved cases before continuing.
# compound, study.target, pIC50
rows = [
    ("Cc1cc(NC(=O)C2CCN(CC(F)(F)F)CC2)nn1Cc1cc(Cl)cc2cc(-c3ccccc3)oc12", "Prostaglandin E2 receptor EP1 subtype (Homo sapiens)", 7.60),
    ("Cc1cc(C(N)=O)nn1Cc1cc(Cl)cc2cc(-c3ccccc3)oc12", "Prostaglandin E2 receptor EP1 subtype (Homo sapiens)", 8.30),
    ("Cc1cc(C(=O)O)nn1Cc1cc(Cl)cc2cc(C(C)(C)C)oc12", "Prostaglandin E2 receptor EP1 subtype (Homo sapiens)", 7.20),
    ("Cc1cc(C(=O)NN2CCOCC2)nn1Cc1cc(Cl)cc2cc(-c3ccccc3)oc12", "Prostaglandin E2 receptor EP1 subtype (Homo sapiens)", 8.00),
    ("Cc1cc(C(=O)NC[C@H]2CCCO2)nn1Cc1cc(Cl)cc2cc(-c3ccccc3)oc12", "Prostaglandin E2 receptor EP1 subtype (Homo sapiens)", 8.20),
]

Please report pIC50 for every entry that follows.
1. Cc1cc(C(=O)NC(C)C)nn1Cc1cc(Cl)cc2cc(-c3ccccc3)oc12
2. Cc1cc(C(=O)O)nn1Cc1cc(Cl)cc2cc(C3CCCCC3)oc12
3. Cc1cc(C(=O)NCC(O)C(F)(F)F)nn1Cc1cc(Cl)cc2cc(-c3ccccc3)oc12 (configuration not stated)
4. Cc1cc(C(=O)NC2CC2)nn1Cc1cc(Cl)cc2cc(-c3ccccc3)oc12
5. CCCc1cc2cc(Cl)cc(Cn3nc(C(=O)O)cc3C)c2o1
6. Cc1cc(C(=O)O)nn1Cc1cc(Cl)cc2cc(-c3ccccc3)oc12

[8.00, 8.40, 7.60, 8.30, 7.60, 8.70]

====

assay: Half life in rat at 3 mg/kg, po; format: ADME, organism-based; parameters: dose 3 mg/kg, route oral; conditions: in vivo
value.type: half-life
Write the numeric value and follow it with the unit.

Which half-life value belongs to Cc1cc(C(=O)NN2CCOCC2)nn1Cc1cc(Cl)cc2cc(C(C)C)oc12 ?
1.7 h

====

biological target: Prostaglandin E2 receptor EP1 subtype (Homo sapiens, UniProt P34995); experiment: Antagonist activity at human recombinant EP1 receptor expressed in CHO-K1 cells assessed as inhibition of PGE2-mediated intracellular calcium mobilization by FLIPR method; assay type: functional, cell-based
value.type: Ki (nM)
One number for each entry, in nM.

Which Ki value belongs to Cc1cc(C(=O)O)nn1Cc1cc(Cl)cc2cc(C(C)C)oc12 ?
0.398

====

experiment: Lipophilicity, log D of compound at pH 7.4 by shake flask method; type: physicochemical; conditions: buffer
Would you kindly list logD for each of these molecules?
Give bare numbers.

Study these solved cases before continuing.
# given.smiles, logD
data = [
    ("Cc1cc(C(=O)NN2CCOCC2)nn1Cc1cc(Cl)cc2cc(C(C)C)oc12", 2.6),
    ("Cc1cc(C(=O)NC(C)(C)C)nn1Cc1cc(Cl)cc2cc(-c3ccccc3)oc12", 2.9),
]

Moving on to the next molecule.
Which logD value belongs to Cc1cc(C(=O)NN2CCOCC2)nn1Cc1cc(Cl)cc2cc(-c3ccccc3)oc12 ?
3

====

test: Oral bioavailability in rat at 3 mg/kg; type: ADME, organism-based; conditions: in vivo
value.type: bioavailability (%)
Answers are plain numbers, in %.

Which bioavailability value belongs to Cc1cc(C(=O)NN2CCOCC2)nn1Cc1cc(Cl)cc2cc(C(C)C)oc12 ?
19

====

assay: Solubility of the compound in water after 1 hr; format: physicochemical
value.type: solubility at 1 h
Write the numeric value and follow it with the unit.

Which solubility at 1 h value belongs to Cc1cc(C(=O)NN2CCOCC2)nn1Cc1cc(Cl)cc2cc(-c3ccccc3)oc12 ?
171 µg/mL
